The reported numbers originate from PubChem BioAssay (NCI).

- System: HOP-92 NSCLC
- test: NCI-60 one-dose screen, 48 h (100 = growth as untreated, 0 = no growth, -100 = all killed)
- test settings: 10 µM
Compounds without any hit were thinned out: in the full panel of roughly 83,000, 20% have a hit.
quantity: growth (%)
Answers are plain numbers, in %.

Would you please look over these solved cases?
In [3]: df
Out[3]:
                                   compound  value_reported
0  COC(=O)c1ccc2[nH]c(O)c(C(=Nc3ccc(N(C)C(=O)CN4CCN(C)CC4)cc3)c3cccc(OC)c3)c2c1            48.3
1  O=S(=O)(Cc1cccc2c(CS(=O)(=O)c3ccc(Cl)cc3)cccc12)c1ccc(Cl)cc1            97.1

Quick one: give me growth for each item below, same order please.
1. Cc1c(Cc2ccccc2)c(=O)oc2c(C)c(OCC(=O)n3nc(C#N)cc3N)ccc12
2. CCOC(=O)c1c(C)oc2ncnc(Nc3ccc(C(=O)NCCc4ccccc4)cc3)c12
3. COc1cccc(CNC(=O)c2cccc(C3CC(=O)c4c(cc(OC)c(OC)c4OC)O3)c2)c1 (stereo unspecified)
4. c1cc(C2CCCCC2)ccc1OCCCCCCN1CCNCC1
5. Cc1[nH]n(C(=S)Nc2nc3cc(Cl)c(F)cc3s2)c(=O)c1N=Nc1ccc(F)c(Cl)c1
6. Cc1c(O)c(N=Nc2ccc(C(=O)O)c(O)c2)c2ccccc2c1O
7. CCCCCCCCCCCCCCCCCC1=NCCN1CCNC(C)=O

Reply:
[89.1, 61.6, 19.8, 6.55, 71.2, 77.7, 62.1]

Quick one: give me growth for each item below, same order please.
1. Cn1c2c(cc(S(=O)(=O)c3ccccc3)c1=O)CCc1c-2cnn1-c1ccc(Cl)cc1
2. Oc1ccc([S+](c2ccc(O)cc2)c2ccc(O)cc2)cc1

Reply:
1: -34.2; 2: 92.2

###

- Tested on: TK-10 renal
- test: NCI-60 one-dose screen, 48 h (100 = growth as untreated, 0 = no growth, -100 = all killed)
- test settings: 10 µM unless noted
Compounds without any hit were thinned out: in the full panel of roughly 83,000, 20% have a hit.
quantity: growth (%)
One number for each entry, in %.

Would you please look over these solved cases?
In [3]: df
Out[3]:
                                   compound  value_reported
0  NC(CSC(c1ccccc1)(c1ccccc1)c1ccccc1)C(=O)NCC(=O)O (stereo not given)            98.8
1  COc1cc([C@@H]2c3cc4c(cc3[C@H](O)[C@H]3COC[C@@H]23)OCO4)cc(OC)c1OC            94.4
2           CCC(C)CC(N)O (stereo not given)              99
3                   CC(=O)Nc1ccc(CC#N)cc1Br            96.4

Now for another entry.
Query: Give a short answer stating reported growth for COc1cc(-c2nn(-c3ccc(NC(=O)Nc4ccc(Cl)c(Cl)c4)cc3)cc2-c2ccncc2)ccc1Cl .
Reply: -12.6

###

Please provide measured growth for the entries that follow.
- Tested on: NCI-H322M lung
- test: NCI-60 one-dose screen, 48 h (100 = growth as untreated, 0 = no growth, -100 = all killed)
- test settings: 10 µM unless noted
The panel holds about 83,000 compounds, 20% with a hit somewhere; the sample as a whole holds those more often. Active and inactive are the calls of the source. The calls were made as follows: active = growth percent below 10; inactive = the rest.

>>> print(df.to_string())
                                   compound    value_reported
0    CCOC(=O)c1ccc2n1CCCc1cnc(NC(C)=O)nc1-2   110% (inactive)
1  CCOC(=O)C1=NN(c2ccccc2)C2=NC(=O)/C(=C\c3cn(-c4ccccc4)nc3-c3cc4ccccc4o3)C(=O)N12  89.6% (inactive)
2  C/C=C(/C)C(=O)OC1C=C(CO)C(=O)C(OC(=O)C2(C)OC2C)C1C(C)C (stereo unspecified)   -3.37% (active)
3  O=C(CCCC(=O)Nc1ccc(Cn2nnc3cc(Cl)c(Cl)cc32)cc1)Nc1ccc(CN2N=NC3C=C(Cl)C(Cl)=CC32)cc1 (stereo unspecified)    74% (inactive)

Quick one: give me growth for each item below, same order please.
1. O=C(O)c1occ(Cl)c1Cl
2. COC(=O)/C=C1/CCCCC1(C)C(=O)OC (stereo unspecified)
3. CCCCCCCCCCCC(=O)OC(C)C(=O)Nc1ccccc1 (stereo unspecified)
4. O=C1C(=O)c2ccccc2C(O)=C1CCCc1ccc(C2CCCC2)cc1
5. O=C(C(=O)N1CCOCC1)c1ccc(O[C@H]2O[C@H](CO)[C@@H](O)[C@H](O)[C@@H]2O)cc1

Reply:
116% (inactive)
105% (inactive)
95.3% (inactive)
37.9% (inactive)
91.7% (inactive)
